Origin of values: ChEMBL document CHEMBL1961873

Study Target: Serine/threonine-protein kinase Chk1 (Homo sapiens) (UniProt O14757);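 note: reported figure is the mean percent inhibition of CHEK1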
Sequence (O14757 whole entry): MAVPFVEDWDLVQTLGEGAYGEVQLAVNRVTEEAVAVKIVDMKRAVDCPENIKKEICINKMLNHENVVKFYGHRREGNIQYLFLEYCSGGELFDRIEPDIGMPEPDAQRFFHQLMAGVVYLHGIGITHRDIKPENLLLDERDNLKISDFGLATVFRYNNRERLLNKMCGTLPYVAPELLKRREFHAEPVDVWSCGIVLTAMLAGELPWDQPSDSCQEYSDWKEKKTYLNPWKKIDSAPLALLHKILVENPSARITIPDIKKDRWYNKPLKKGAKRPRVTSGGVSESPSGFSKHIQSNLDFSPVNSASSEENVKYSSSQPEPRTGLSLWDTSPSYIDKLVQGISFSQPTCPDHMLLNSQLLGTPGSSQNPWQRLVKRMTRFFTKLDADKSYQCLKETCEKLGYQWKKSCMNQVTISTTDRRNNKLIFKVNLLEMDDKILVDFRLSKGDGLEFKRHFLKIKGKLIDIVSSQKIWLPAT
Conditions Used: at 0.1 µM
Measurement Label: inhibition (%)
Unit % implied. Number only.

Known results for compounds:
CN(C)c1cc2c(Nc3ccc4nc(Cc5ccccc5)[nH]c4c3)ncnc2cn1 ... 7.31
CC1=C(C(=O)Nc2ccc3[nH]ncc3c2)C(c2ccc3ccccc3c2)CC(=O)N1 (centres undefined) ... 0.95
O=C1NC(=O)C(c2ccc(Cl)cc2)=C1Nc1ccc(Cl)c(C(=O)O)c1 ... -0.04

Request: Any idea what inhibition came out for COc1cc(C)c(NC(=O)CN(C)C)cc1Nc1nc(Nc2cccc(F)c2C(N)=O)c2cc[nH]c2n1 on Serine/threonine-protein kinase Chk1 (Homo sapiens) (UniProt O14757)?
Result: -4.03

Request: Any idea what inhibition came out for CCCN1CCC=C(c2ccc(Nc3nc(Nc4ccccc4C(N)=O)c4cc[nH]c4n3)c(C)c2)C1 on Serine/threonine-protein kinase Chk1 (Homo sapiens) (UniProt O14757)?
Result: 1.09

Request: Any idea what inhibition came out for COc1ccc(-c2nn3ncccc3c2-c2ccnc(Nc3ccc(Cl)c(C(F)(F)F)c3)n2)cc1 on Serine/threonine-protein kinase Chk1 (Homo sapiens) (UniProt O14757)?
Result: -0.59

Request: Any idea what inhibition came out for CCn1c(-c2nonc2N)nc2cnc(Oc3cccc(NC(=O)c4ccc(OCCN5CCOCC5)cc4)c3)cc21 on Serine/threonine-protein kinase Chk1 (Homo sapiens) (UniProt O14757)?
Result: -8.33

Request: Any idea what inhibition came out for CS(=O)(=O)CCNCc1nc(-c2ccc3ncnc(Nc4ccc(F)c(Cl)c4)c3c2)cs1 on Serine/threonine-protein kinase Chk1 (Homo sapiens) (UniProt O14757)?
Result: 2.71

Request: Any idea what inhibition came out for CCCN1CCC(Oc2cc(Nc3nc(Nc4cccc(F)c4C(N)=O)c4cc[nH]c4n3)c(OC)cc2Cl)CC1 on Serine/threonine-protein kinase Chk1 (Homo sapiens) (UniProt O14757)?
Result: 1.9

* * *

Study Target: Rho-associated protein kinase 1 (Homo sapiens) (UniProt Q13464);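 note: values are mean percent inhibition of ROCK1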
Conditions Used: at 0.1 µM
# inhibition per entry
Unit % implied. Number only.

Known results for compounds:
CN1CCC(C(=O)Nc2n[nH]c3nnc(-c4ccccc4)cc23)CC1 ... 7.45
Nc1nc(-c2ccc3c(c2)C(=Cc2cc(Br)c(O)c(Br)c2)C(=O)N3)cs1 ... -0.08
O=C1Nc2ccc(C(=O)c3ccco3)cc2C1=Cc1cc(Cl)c(O)c(Cl)c1 ... 1.44
Nc1ncnc2occ(-c3ccc(NC(=O)Nc4cc(C(F)(F)F)cc(C(F)(F)F)c4)cc3)c12 ... 6.3

Request: Any idea what inhibition came out for CC1=C(C(=O)Nc2ccc3[nH]ncc3c2)C(c2ccc(Cl)c(Cl)c2)CC(=O)N1 (stereo not given) on Rho-associated protein kinase 1 (Homo sapiens) (UniProt Q13464)?
Result: 68.6

Request: Any idea what inhibition came out for COC(=O)Nc1nc2cc(Oc3cccc(NC(=O)Nc4cc(C(F)(F)F)ccc4F)c3)ccc2[nH]1 on Rho-associated protein kinase 1 (Homo sapiens) (UniProt Q13464)?
Result: -0.55

Request: Any idea what inhibition came out for NS(=O)(=O)c1ccc(N/N=C2\C(=O)Nc3ccc(C(=O)NCCc4c[nH]cn4)cc32)cc1 on Rho-associated protein kinase 1 (Homo sapiens) (UniProt Q13464)?
Result: 1.37

Request: Any idea what inhibition came out for CCc1cccc(NC(=O)Nc2ccc(Oc3ccc4nc(NC(=O)OC)[nH]c4c3)cc2)c1 on Rho-associated protein kinase 1 (Homo sapiens) (UniProt Q13464)?
Result: 12.1

Request: Any idea what inhibition came out for CN(C)c1cc2c(Nc3ccc4nc(Cc5ccccc5)[nH]c4c3)ncnc2cn1 on Rho-associated protein kinase 1 (Homo sapiens) (UniProt Q13464)?
Result: 5.7

Request: Any idea what inhibition came out for CS(=O)(=O)CCN(CC#N)Cc1ccc(-c2ccc3ncnc(Nc4ccc(OCc5cccc(F)c5)c(Cl)c4)c3c2)o1 on Rho-associated protein kinase 1 (Homo sapiens) (UniProt Q13464)?
Result: 0.99

* * *

# inhibition per entry
Test system: Platelet-derived growth factor receptor alpha (Homo sapiens), P16234 [T674I]
Sequence (P16234 whole entry T674I): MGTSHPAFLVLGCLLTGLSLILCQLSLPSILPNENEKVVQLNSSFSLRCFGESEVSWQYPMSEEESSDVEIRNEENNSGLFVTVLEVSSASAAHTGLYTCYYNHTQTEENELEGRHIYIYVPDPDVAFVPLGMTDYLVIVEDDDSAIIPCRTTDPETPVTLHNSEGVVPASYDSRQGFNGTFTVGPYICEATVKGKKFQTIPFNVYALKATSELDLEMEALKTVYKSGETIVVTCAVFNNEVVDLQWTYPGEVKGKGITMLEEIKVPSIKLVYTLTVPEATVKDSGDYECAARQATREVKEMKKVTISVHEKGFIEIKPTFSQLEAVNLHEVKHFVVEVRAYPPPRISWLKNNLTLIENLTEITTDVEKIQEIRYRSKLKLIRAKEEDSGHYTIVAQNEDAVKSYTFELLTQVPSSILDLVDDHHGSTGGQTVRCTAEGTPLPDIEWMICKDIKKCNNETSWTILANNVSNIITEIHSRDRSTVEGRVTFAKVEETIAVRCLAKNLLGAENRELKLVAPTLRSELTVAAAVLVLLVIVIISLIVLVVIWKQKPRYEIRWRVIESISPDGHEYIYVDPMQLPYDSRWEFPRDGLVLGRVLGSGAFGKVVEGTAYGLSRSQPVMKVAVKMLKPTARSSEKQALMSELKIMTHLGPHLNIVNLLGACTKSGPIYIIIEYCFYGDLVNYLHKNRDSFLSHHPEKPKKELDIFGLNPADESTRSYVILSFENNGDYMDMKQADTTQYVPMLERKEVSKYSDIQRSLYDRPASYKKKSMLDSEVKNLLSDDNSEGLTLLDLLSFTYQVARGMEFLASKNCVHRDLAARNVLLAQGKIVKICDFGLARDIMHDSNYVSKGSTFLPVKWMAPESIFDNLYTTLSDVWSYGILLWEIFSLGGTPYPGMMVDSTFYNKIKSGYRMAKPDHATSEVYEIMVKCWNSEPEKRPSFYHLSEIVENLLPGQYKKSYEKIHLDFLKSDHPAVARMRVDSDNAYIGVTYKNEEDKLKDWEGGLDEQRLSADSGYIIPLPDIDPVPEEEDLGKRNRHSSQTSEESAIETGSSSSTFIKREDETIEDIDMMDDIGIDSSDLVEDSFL
Conditions Used: at 1 µM
Unit % implied. Number only.

Request: Which value of inhibition has been reported for CCCN1CCC(Oc2cc(Nc3nc(Nc4cccc(F)c4C(N)=O)c4cc[nH]c4n3)c(OC)cc2Cl)CC1 in the records?
Result: 1.04

Request: Which value of inhibition has been reported for NC(=O)c1ccc(-c2nc(-c3ccccn3)c(-c3ccc4c(c3)OCO4)[nH]2)cc1 in the records?
Result: 5.68

Request: Which value of inhibition has been reported for COc1cccc(-n2ncc3c(N/N=C/c4cccc(F)c4)ncnc32)c1 in the records?
Result: 22.2

Request: Which value of inhibition has been reported for COc1cc(C=NNc2ncnc3c2cnn3-c2ccccc2)ccc1O in the records?
Result: 39.1

Request: Which value of inhibition has been reported for Cc1ccc(C(=O)NC2CCCCC2)cc1-c1ccc(C(=O)NCC2CC2)cc1 in the records?
Result: -1.01

* * *

# inhibition per entry
Study Target: Ribosomal protein S6 kinase alpha-4 (Homo sapiens) (UniProt O75676);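 note: values are mean inhibition of MSK2, from GSK PKIS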
Sequence (O75676 whole entry, looked up): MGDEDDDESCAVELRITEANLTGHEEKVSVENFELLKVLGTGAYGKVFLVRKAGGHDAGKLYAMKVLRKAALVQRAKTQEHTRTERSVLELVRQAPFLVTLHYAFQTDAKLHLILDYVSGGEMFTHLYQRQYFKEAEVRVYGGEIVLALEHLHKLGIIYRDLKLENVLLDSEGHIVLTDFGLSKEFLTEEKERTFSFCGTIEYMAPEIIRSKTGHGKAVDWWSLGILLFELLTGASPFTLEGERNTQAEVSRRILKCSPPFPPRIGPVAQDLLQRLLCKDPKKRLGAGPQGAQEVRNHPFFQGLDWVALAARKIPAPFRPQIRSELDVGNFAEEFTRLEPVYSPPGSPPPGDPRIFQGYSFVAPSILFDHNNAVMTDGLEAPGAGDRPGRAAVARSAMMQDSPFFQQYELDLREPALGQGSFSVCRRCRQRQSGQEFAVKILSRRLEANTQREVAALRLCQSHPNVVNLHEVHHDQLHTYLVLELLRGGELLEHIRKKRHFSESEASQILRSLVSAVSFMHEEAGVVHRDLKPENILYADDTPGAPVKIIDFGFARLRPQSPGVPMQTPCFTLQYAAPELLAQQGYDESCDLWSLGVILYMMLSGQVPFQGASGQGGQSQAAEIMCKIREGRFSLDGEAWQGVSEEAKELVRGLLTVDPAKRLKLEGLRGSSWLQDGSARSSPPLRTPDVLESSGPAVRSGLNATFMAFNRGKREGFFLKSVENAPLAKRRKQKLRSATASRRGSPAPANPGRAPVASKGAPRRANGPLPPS
Conditions Used: at 0.1 µM
Unit % implied. Number only.

Known results for molecules:
Nc1ncnc2occ(-c3ccc(NC(=O)Nc4cccc(C(F)(F)F)c4)cc3)c12 ... 3.31
COc1cc2c(cc1Nc1nc(N3CCc4ccccc43)c3cc[nH]c3n1)N(C(=O)CN(C)C)CC2 ... 0.65
Cc1cc(O)cc(C)c1/C=C/c1cncc(-c2nn[nH]n2)c1 ... 1.46
COc1cc(C)c(NC(=O)CN(C)C)cc1Nc1nc(Nc2cccc(F)c2C(N)=O)c2cc[nH]c2n1 ... -0.16
Cc1cccc(-c2n[nH]cc2-c2ccc3ncccc3n2)n1 ... 1.84
COc1cc2ncn(-c3cc(OCc4ccccc4Cl)c(C(N)=O)s3)c2cc1OC ... 0.79
NC(=O)c1ccc(-c2nc(-c3ccccn3)c(-c3ccc4c(c3)OCO4)[nH]2)cc1 ... 2.14
CCCN1CCC(Oc2cc(Nc3nc(Nc4cccc(F)c4C(N)=O)c4cc[nH]c4n3)c(OC)cc2Cl)CC1 ... 1.03

Now look at this entry.
Request: Which value of inhibition has been reported for CCn1c(-c2nonc2N)nc2c(C#CC(C)(C)O)nc(OC[C@@H](N)c3ccccc3)cc21 in the records?
Result: 1.92

* * *

# inhibition per entry
Study Target: cGMP-dependent protein kinase 2 (Homo sapiens) (UniProt Q13237);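 note: mean inhibition of PRKG2 from the GSK PKIS screen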
Sequence (Q13237 whole entry): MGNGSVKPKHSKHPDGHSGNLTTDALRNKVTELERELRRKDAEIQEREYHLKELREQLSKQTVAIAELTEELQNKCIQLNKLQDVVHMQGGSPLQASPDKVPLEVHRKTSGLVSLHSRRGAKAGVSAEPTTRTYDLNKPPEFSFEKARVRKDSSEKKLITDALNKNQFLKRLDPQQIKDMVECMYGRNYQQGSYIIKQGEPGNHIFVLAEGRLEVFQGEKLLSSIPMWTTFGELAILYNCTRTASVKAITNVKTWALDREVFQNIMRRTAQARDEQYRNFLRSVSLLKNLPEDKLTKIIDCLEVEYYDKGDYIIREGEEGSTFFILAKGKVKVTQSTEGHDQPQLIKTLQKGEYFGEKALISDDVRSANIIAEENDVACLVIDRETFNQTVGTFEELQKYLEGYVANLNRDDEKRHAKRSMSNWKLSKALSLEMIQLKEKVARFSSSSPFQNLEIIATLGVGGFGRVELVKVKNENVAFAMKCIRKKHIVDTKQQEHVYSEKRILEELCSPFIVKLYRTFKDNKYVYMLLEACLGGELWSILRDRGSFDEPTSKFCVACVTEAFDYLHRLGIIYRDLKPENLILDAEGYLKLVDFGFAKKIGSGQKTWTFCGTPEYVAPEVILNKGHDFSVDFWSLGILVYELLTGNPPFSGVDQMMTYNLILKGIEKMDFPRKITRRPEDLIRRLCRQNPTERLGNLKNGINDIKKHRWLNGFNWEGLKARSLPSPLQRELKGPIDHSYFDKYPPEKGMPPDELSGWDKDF
Conditions Used: at 1 µM
Unit % implied. Number only.

Known results for compounds:
[O-][S+]1CCN(Cc2ccc(-c3ccc4ncnc(Nc5ccc(OCc6ccccc6)c(F)c5)c4c3)o2)CC1 ... 2.79
CCn1c(-c2nonc2N)nc2c(N3CCCC3)nccc21 ... 9.26

Request: Which value of inhibition has been reported for COC(=O)Nc1nc2cc(Oc3ccc(NC(=O)Nc4cccc(C(=O)O)c4)cc3)ccc2[nH]1 in the records?
Result: 0.86

Request: Which value of inhibition has been reported for Nc1nc(-c2ccc3c(c2)C(=Cc2cc(Br)c(O)c(Br)c2)C(=O)N3)cs1 in the records?
Result: 1.49

* * *

# inhibition per entry
Study Target: Tyrosine-protein kinase JAK3 (Homo sapiens)
Conditions Used: at 1 µM
Description: GSK_PKIS: JAK3 mean inhibition at 1 uM [Nanosyn]
Unit % implied. Number only.

Nc1nc(-c2ccc3c(c2)C(=Cc2cc(Br)c(O)c(Br)c2)C(=O)N3)cs1 ... 2.02

Request: Which value of inhibition has been reported for Cc1cc(O)cc(C)c1/C=C/c1cncc(-c2nn[nH]n2)c1 in the records?
Result: -3.88

* * *

Study Target: Protein kinase C beta type (Homo sapiens) (UniProt P05771);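 note: measured against the PKC-beta2 splice variant, with values reported as mean percent inhibition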
Sequence (P05771 2-671 limits assumed): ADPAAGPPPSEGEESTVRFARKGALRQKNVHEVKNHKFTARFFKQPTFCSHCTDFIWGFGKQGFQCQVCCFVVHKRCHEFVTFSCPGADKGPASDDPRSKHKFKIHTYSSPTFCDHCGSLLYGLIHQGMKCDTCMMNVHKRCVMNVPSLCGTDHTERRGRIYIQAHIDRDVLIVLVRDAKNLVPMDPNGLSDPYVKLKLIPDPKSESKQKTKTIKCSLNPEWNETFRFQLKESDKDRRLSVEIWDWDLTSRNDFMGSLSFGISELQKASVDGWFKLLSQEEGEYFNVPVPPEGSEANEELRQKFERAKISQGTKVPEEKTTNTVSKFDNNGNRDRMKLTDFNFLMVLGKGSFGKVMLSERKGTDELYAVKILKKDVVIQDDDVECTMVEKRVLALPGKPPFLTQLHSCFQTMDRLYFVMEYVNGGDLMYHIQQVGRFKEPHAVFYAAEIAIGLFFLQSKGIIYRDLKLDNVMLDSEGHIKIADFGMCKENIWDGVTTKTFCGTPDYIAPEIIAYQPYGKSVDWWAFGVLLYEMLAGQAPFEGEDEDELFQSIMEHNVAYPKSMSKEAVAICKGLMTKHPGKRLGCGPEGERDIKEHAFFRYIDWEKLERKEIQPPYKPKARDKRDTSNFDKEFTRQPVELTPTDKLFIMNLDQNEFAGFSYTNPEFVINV
Conditions Used: at 0.1 µM
Description: GSK_PKIS: PKC-beta2 (splice variant) mean inhibition at 0.1 uM [Nanosyn]
# inhibition per entry
Unit % implied. Number only.

Request: Which value of inhibition has been reported for COC(=O)Nc1nc2cc(Oc3ccc(NC(=O)Nc4cccc(C(=O)O)c4)cc3)ccc2[nH]1 in the records?
Result: -0.5

* * *

Study Target: Serine/threonine-protein kinase BRSK1 (Homo sapiens);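 note: each value is a mean percent inhibition of BRSK1 kinase activity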
Conditions Used: at 1 µM
# inhibition per entry
Unit % implied. Number only.

Known results for molecules:
Nc1nc(-c2ccc3c(c2)C(=Cc2cc(Br)c(O)c(Br)c2)C(=O)N3)cs1 ... 6.62
O=C1NC(=O)C(N2CCc3ccccc32)=C1c1ccc(Cl)cc1 ... 5.07
COC(=O)Nc1nc2cc(Oc3cccc(NC(=O)Nc4cc(C(F)(F)F)ccc4F)c3)ccc2[nH]1 ... 1.87
O=C1NC(=O)C(c2ccccc2Cl)=C1Nc1cccc(O)c1 ... 6.4

Now look at this entry.
Request: Which value of inhibition has been reported for CS(=O)(=O)CCNCc1nc(-c2ccc3ncnc(Nc4ccc(F)c(Cl)c4)c3c2)cs1 in the records?
Result: 1.59

* * *

Study Target: RAC-beta serine/threonine-protein kinase (Homo sapiens) (UniProt P31751);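 note: reported figure is the mean percent inhibition of AKT2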
Sequence (P31751 whole entry): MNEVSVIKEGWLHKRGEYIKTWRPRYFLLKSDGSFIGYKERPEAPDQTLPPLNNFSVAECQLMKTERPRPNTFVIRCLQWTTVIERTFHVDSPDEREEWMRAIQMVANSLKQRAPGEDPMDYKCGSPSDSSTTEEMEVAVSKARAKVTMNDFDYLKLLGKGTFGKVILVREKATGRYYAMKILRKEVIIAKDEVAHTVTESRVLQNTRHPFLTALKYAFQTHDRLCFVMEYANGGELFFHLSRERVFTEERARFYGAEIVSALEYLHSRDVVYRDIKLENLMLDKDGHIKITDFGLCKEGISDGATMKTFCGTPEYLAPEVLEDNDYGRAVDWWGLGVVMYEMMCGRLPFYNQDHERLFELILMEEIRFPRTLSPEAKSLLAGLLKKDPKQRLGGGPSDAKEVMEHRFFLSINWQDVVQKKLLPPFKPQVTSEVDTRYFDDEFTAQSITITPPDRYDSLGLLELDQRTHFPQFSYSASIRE
Conditions Used: at 0.1 µM
Measurement Label: inhibition (%)
Unit % implied. Number only.

Known results for compounds:
COc1ccc(-c2nn3ncccc3c2-c2ccnc(Nc3ccc(Cl)c(C(F)(F)F)c3)n2)cc1 ... 1.16
CC(C)=Cc1cccc2c1/C(=N/Nc1ccc(S(N)(=O)=O)cc1)C(=O)N2 ... 0.76
CC1=C(C(=O)Nc2ccc3[nH]ncc3c2)C(c2ccc3ccccc3c2)CC(=O)N1 (centres undefined) ... 0.74
CS(=O)(=O)CCN(CC#N)Cc1ccc(-c2ccc3ncnc(Nc4ccc(OCc5cccc(F)c5)c(Cl)c4)c3c2)o1 ... -3.4
CCn1c(-c2nonc2N)nc2ccncc21 ... 0.98

Request: Any idea what inhibition came out for CC1=C(C(=O)Nc2ccc3[nH]ncc3c2)C(c2ccc(Cl)c(Cl)c2)CC(=O)N1 (centres undefined) on RAC-beta serine/threonine-protein kinase (Homo sapiens) (UniProt P31751)?
Result: 1.11

Request: Any idea what inhibition came out for CS(=O)(=O)CCNCc1ccc(-c2ccc3ncnc(Nc4ccc(OCc5cccc(F)c5)c(C(F)(F)F)c4)c3c2)o1 on RAC-beta serine/threonine-protein kinase (Homo sapiens) (UniProt P31751)?
Result: 2.87

Request: Any idea what inhibition came out for NC(=O)c1cccc(Nc2nccc(Nc3cccc4[nH]ncc34)n2)c1 on RAC-beta serine/threonine-protein kinase (Homo sapiens) (UniProt P31751)?
Result: -3.71

Request: Any idea what inhibition came out for CC1=C(C(=O)Nc2ccc3[nH]ncc3c2)C(c2ccc(F)cc2)NC(=O)N1 (centres undefined) on RAC-beta serine/threonine-protein kinase (Homo sapiens) (UniProt P31751)?
Result: 0.33
